study_target: His6-AspH315–758 (human aspartate/asparagine-β-hydroxylase, AspH) (Homo sapiens)
Construct: N-Terminally His6-tagged human AspH315–758 (His6-AspH315–758) was produced in E. coli BL21 (DE3) cells; made in house; host or cells: E. coli BL21 (DE3), pET-28a(+) vector
Sequence (Q12797 315-758): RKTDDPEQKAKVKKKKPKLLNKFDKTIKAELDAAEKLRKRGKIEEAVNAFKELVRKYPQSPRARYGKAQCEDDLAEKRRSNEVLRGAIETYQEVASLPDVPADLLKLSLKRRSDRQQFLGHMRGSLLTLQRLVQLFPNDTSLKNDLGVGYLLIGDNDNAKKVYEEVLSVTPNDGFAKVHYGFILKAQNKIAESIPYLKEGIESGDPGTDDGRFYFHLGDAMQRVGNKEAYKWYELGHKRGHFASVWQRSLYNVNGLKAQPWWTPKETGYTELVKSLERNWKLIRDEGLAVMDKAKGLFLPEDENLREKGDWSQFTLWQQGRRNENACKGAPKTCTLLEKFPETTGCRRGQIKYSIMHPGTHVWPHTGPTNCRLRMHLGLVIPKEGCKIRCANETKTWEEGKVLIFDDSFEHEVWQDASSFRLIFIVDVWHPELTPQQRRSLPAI
test_method_notes: SPE-MS AspH inhibition assay (LOPAC screen at fixed 20 μM and IC50 dose-response), hydroxylation of cyclic peptide hFX-CP101–119
Type: biochemical
measurement_parameters: 50 nM AspH, 2.0 μM Fe(II); Zn(OAc)2, NiSO4, CoCl2, MnCl2, CaCl2 as metal sources; n = 2, mean ± SD; read-out: IC50 metal ion, AspH
quantity_kind: IC50 (µM)
Numbers only here, please. The scale is µM.

Kindly note: His6-AspH315–758 (human aspartate/asparagine-β-hydroxylase, AspH) (Homo sapiens), [Cl][Mn][Cl] , IC50 value reported: 5.06

* * *

study_target: His6-AspH315–758 (human aspartate/asparagine-β-hydroxylase, AspH) (Homo sapiens, UniProt Q12797)
Construct: N-Terminally His6-tagged human AspH315–758 (His6-AspH315–758) was produced in E. coli BL21 (DE3) cells; made in house; host or cells: E. coli BL21 (DE3), pET-28a(+) vector
test_method_notes: SPE-MS AspH inhibition assay (LOPAC screen at fixed 20 μM and IC50 dose-response), hydroxylation of cyclic peptide hFX-CP101–119
Format: biochemical
measurement_parameters: LOPAC compound at 20uM, plate 2; conversion of substrate peptide
Counter-ions that a name gives are not always drawn.
Threshold check on Plate 2 (% conversion): at or above 40% gives 1, strictly below gives -1.

OC[C@H]1OC(n2cnc3ccccc32)[C@H](O)[C@@H]1O (stereo partly drawn) [D-ribofuranosylbenzimidazole]	-1

Task: Hi team, for CNCCc1cnc(CCC(c2ccccc2)c2ccccc2)[nH]1.O=C(O)C(=O)O.O=C(O)C(=O)O [N-Methylhistaprodifen dioxalate salt] , is the recorded Plate 2 (% conversion) at or above 40%?
Result: -1

Task: hey, is Plate 2 (% conversion) for this one >= 40%? CC[N+](CC)(CC)CCOc1cccc(OCC[N+](CC)(CC)CC)c1OCC[N+](CC)(CC)CC [Gallamine triethiodide]
Result: -1

Task: Does Plate 2 (% conversion) meet or surpass 40% for C[C@H]1O[C@@H](n2cc(F)c(=O)[nH]c2=O)[C@H](O)[C@@H]1O [5-fluoro-5-deoxyuridine] ?
Result: -1

Task: I'd appreciate it if you could say whether COc1cc(SC)ccc1C(=O)N1CCC(Cc2ccccc2)CC1 [JX401] has Plate 2 (% conversion) at least equal to 40%.
Result: 1

Task: Hi team, for COc1cccc2c1[C@@H]1CN(CCCCn3c(=O)[nH]c4c(sc5ncc(-c6ccccc6)nc54)c3=O)C[C@@H]1CO2 [Fiduxosin hydrochloride] , is the recorded Plate 2 (% conversion) at or above 40%?
Result: 1

Task: Decide: Plate 2 (% conversion) of C[N+](C)(C)CCOP(=O)([O-])OP(=O)([O-])OC[C@H]1O[C@@H](n2ccc(N)nc2=O)[C@H](O)[C@@H]1O.[Na+] >= 40%?
Result: -1

* * *

Listing: Plate 1 (% conversion) of selected molecules
study_target: His6-AspH315–758 (human aspartate/asparagine-β-hydroxylase, AspH) (Homo sapiens)
Construct: N-Terminally His6-tagged human AspH315–758 (His6-AspH315–758) was produced in E. coli BL21 (DE3) cells; made in house; host or cells: E. coli BL21 (DE3), pET-28a(+) vector
test_method_notes: SPE-MS AspH inhibition assay (LOPAC screen at fixed 20 μM and IC50 dose-response), hydroxylation of cyclic peptide hFX-CP101–119
Type: biochemical
measurement_parameters: LOPAC compound at fixed 20 uM; substrate conversion, plate 1
Write down the numeric answer in % and omit the unit.

Reference set, count: 5
Cn1c(=O)c2[nH]c(-c3ccc(S(=O)(=O)O)cc3)nc2n(C)c1=O	18.54
Clc1ccc(C(c2ccccc2Cl)C(Cl)Cl)cc1 (stereo not drawn)	37.61
Clc1nccc2c1ccc1ccccc12	40.45
Nc1ncnc2c1nc(Sc1ccc(Cl)cc1)n2C1OC2COP(=O)(O)OC2C1O (stereo in doubt) [8-(4-Chlorophenylthio)-cAMP sodium]	36.85
CO[C@H]1O[C@@H]2O[C@@]3(C)CC[C@H]4[C@H](C)CC[C@@H]([C@H]1C)[C@@]24OO3	38.95

Entry Cl.Cn1ccc2cc(NC(=O)Nc3cccnc3)ccc21 [SB 200646 hydrochloride] ; assay system His6-AspH315–758 (human aspartate/asparagine-β-hydroxylase, AspH) (Homo sapiens); Plate 1 (% conversion) recorded at 38.03

The molecule Nc1nc(OCc2ccccc2)c2nc[nH]c2n1 , when measured on His6-AspH315–758 (human aspartate/asparagine-β-hydroxylase, AspH) (Homo sapiens), yielded Plate 1 (% conversion) of 36.39

Known value: His6-AspH315–758 (human aspartate/asparagine-β-hydroxylase, AspH) (Homo sapiens) Plate 1 (% conversion) of the molecule Nc1ncnc2c1ncn2[C@@H]1O[C@H](CO)[C@@H](O)[C@H]1O equals 34.44

// molecule Cl.NCCCCC(=O)O [5-Aminovaleric acid hydrochloride] , assay His6-AspH315–758 (human aspartate/asparagine-β-hydroxylase, AspH) (Homo sapiens), Plate 1 (% conversion) value: 30.82

* * *

study_target: His6-AspH315–758 (human aspartate/asparagine-β-hydroxylase, AspH) (Homo sapiens, UniProt Q12797)
Construct: N-Terminally His6-tagged human AspH315–758 (His6-AspH315–758) was produced in E. coli BL21 (DE3) cells; made in house; host or cells: E. coli BL21 (DE3), pET-28a(+) vector
test_method_notes: SPE-MS AspH inhibition assay (LOPAC screen at fixed 20 μM and IC50 dose-response), hydroxylation of cyclic peptide hFX-CP101–119
Format: biochemical
measurement_parameters: 20 µM
Reported Plate 2 (% inhibition) is given for each of the following compounds.
Answer in %, number only, no unit symbol.

Reference set, count: 6
Cn1c(=O)c2c(nc(C=Cc3cccc(Cl)c3)n2C)n(C)c1=O	-7.82
CN1[C@H]2C[C@H](OC(=O)[C@H](CO)c3ccccc3)C[C@@H]1[C@@H](O)C2 (racemic) [(+/-)-Anisodamine]	-1.30
COc1cc(CC(=O)O)ccc1O [4-Hydroxy-3-methoxyphenylacetic acid]	-7.80
Cl.OCc1c[nH]cn1 [4-Imidazolemethanol hydrochloride]	-2.37
CN(C)C(=O)[C@H](O)[C@H](Cc1ccccc1)NC(=O)c1cc2cc(Cl)ccc2[nH]1	-3.47
C[C@@H]1O[C@@H](O[C@H]2C[C@@H](O)[C@]3(CO)[C@H]4[C@H](O)C[C@]5(C)[C@@H]([C@@H]6COC(=O)C6)CC[C@]5(O)[C@@H]4CC[C@]3(O)C2)[C@H](O)[C@H](O)[C@H]1O [Dihydroouabain]	-6.59

For the next question, use this compound.
Notebook: C[C@@H](N)Cc1cnc[nH]1.Cl.Cl , Plate 2 (% inhibition) read as -2.41

* * *

study_target: His6-AspH315–758 (human aspartate/asparagine-β-hydroxylase, AspH) (Homo sapiens, UniProt Q12797)
Construct: N-Terminally His6-tagged human AspH315–758 (His6-AspH315–758) was produced in E. coli BL21 (DE3) cells; made in house; host or cells: E. coli BL21 (DE3), pET-28a(+) vector
test_method_notes: SPE-MS AspH inhibition assay (LOPAC screen at fixed 20 μM and IC50 dose-response), hydroxylation of cyclic peptide hFX-CP101–119
Format: biochemical
measurement_parameters: LOPAC compound at 20uM, plate 3; conversion of substrate peptide
Structures can show the parent of a compound that is named as a salt.
Here the recorded Plate 3 (% conversion) is given for each entry.
Numbers only here, please. The scale is %.

O=[N+]([O-])c1ccc(CSc2ncnc3c2ncn3[C@@H]2O[C@H](CO)[C@@H](O)[C@H]2O)cc1	36.51
O=C(OCCN1CCOCC1)C1(c2ccccc2)CCCCC1	38.46
Fc1cccc(/C=N/N=C/c2cccc(F)c2)c1	35.73
CN(C)c1ccc(O)c2c1C[C@H]1C[C@H]3[C@H](N(C)C)C(O)=C(C(N)=O)C(=O)[C@@]3(O)C(O)=C1C2=O [Minocycline hydrochloride]	8.64
CNCCNS(=O)(=O)c1cccc2cnccc12.Cl.Cl [H-8 dihydrochloride]	37.53

According to the records, this compound Nc1nc2c(ncn2CCOCP(=O)(O)O)c(=O)[nH]1 [PMEG hydrate] displays Plate 3 (% conversion) of 30.37

Lab note: CCC(NC(C)C)C(O)c1ccc(O)c(O)c1.CS(=O)(=O)O (centres unmarked) [Isotharine mesylate] gave Plate 3 (% conversion) of 6.91

Lab book: Plate 3 (% conversion) of CCn1cc(C(=O)[O-])c(=O)c2ccc(C)nc21.[Na+] [Nalidixic acid sodium] noted as 26.41
